Test: protein stability index of a GFP-peptide fusion (yeast GPS) (PSI 1-4); higher = more stable; sorted into four equal gates, so the index is relative within each strain
Details: san1∆
assayEndpoint: protein stability index

                               seqtext            assayendpoint  reportedresult
 0           MITKRILEVGALASIQT [RPN12]  protein stability index            2.14
 1    QPQPQPQQQQQHLQFNG [YDL088C/ASM4]  protein stability index             2.5
 2          SVYYHKGNFRTKPFENV [SNU114]  protein stability index            3.37
 3            QKVNAVDSTFQKVSENF [SMC3]  protein stability index            3.44
 4            DAKSTPLRLRLYDNFVS [RPN9]  protein stability index            3.21
 5            IPVNKRRGAHGSELSSK [SIR3]  protein stability index            3.11
 6            SVVLTLQAFGESESTTN [RPB3]  protein stability index            1.67
 7   SDLNLTDRQKKLLGVDM [YLR018C/POM34]  protein stability index            3.19
 8            LSKRQKRKSAQEPELSL [SMC4]  protein stability index            3.09
 9            AVTEATSTNGDSENNEE [RGR1]  protein stability index            3.36
10            KMVAKGLNDLVEQYKFR [BRR2]  protein stability index            3.03
11          TLHLVLRLRGGIIEPSL [RPL40A]  protein stability index            2.58
12            QQQLYGGNNNNNSTGIA [SWI1]  protein stability index            3.25
13            NKTNNEDLFDDYPSTSL [NUT1]  protein stability index            2.85
14   LNESDCLEACSFILSSL [YDL116W/NUP84]  protein stability index            2.96
15           TYAAEIAHNISAKNRVV [RPL32]  protein stability index            2.28
16           KSGKRKPNIILDEDDTN [RPC31]  protein stability index            3.35
17          DFLRKATAFNKTRGPFH [RPL16A]  protein stability index            3.04
18            AVATPKAEVTQLSNGIV [COR1]  protein stability index            3.12
19           EHSQVEQTCVKLLDSGC [SRP72]  protein stability index            3.11
20           SLENNIREFPEYFAAQA [RPL10]  protein stability index            2.75
21  RNKRAVQLPILKIIYTG [YJL039C/NUP192]  protein stability index            1.97
22            AGQIPTGWNAKTYGISD [FAS2]  protein stability index            1.66
23   GMNNASAGLFGSKPAGG [YGL172W/NUP49]  protein stability index            2.96
24            LHYDKDYNLRIYCYFLI [SSN8]  protein stability index            1.37
25            KKKTKKELELERKERED [SWI1]  protein stability index            3.51
26           RLKYALNGREVKAILMQ [RPS4A]  protein stability index            1.62
27           FSKQCLISNAIYGKKTM [ECM29]  protein stability index            1.63
28            TIFSPEGRLYQVEYALE [PRE9]  protein stability index            3.14
29           SPQLTAIIGLKSGTSHD [SNF12]  protein stability index            1.84
